The reported numbers originate from ChEMBL document CHEMBL2413023.

- assayInfo: in vitro
- measurementParameters: human, WI38 cells
- Description: Selectivity index, ratio of IC50 for human WI38 cells to IC50 for Trypanosoma brucei brucei Lister 427 bloodstream form
measurementName: selectivity ratio

smilesStructure: C=C[C@H]1CN2CC[C@H]1C[C@H]2[C@H](O)c1cc(CC[C@@H](C)[C@H]2CC[C@H]3[C@@H]4CC[C@@H]5C[C@H](O)CC[C@]5(C)[C@H]4CC[C@]23C)nc2ccccc12
selectivity ratio: 4.3
--
smilesStructure: C=C[C@H]1CN2CC[C@H]1C[C@H]2[C@H](O)c1cc(CC[C@@H](C)[C@H]2CC[C@H]3[C@@H]4CC[C@@H]5C[C@H](OC(C)=O)CC[C@]5(C)[C@H]4CC[C@]23C)nc2ccc(OC)cc12
selectivity ratio: 8
--
smilesStructure: C=C[C@H]1CN2CC[C@H]1C[C@H]2[C@H](O)c1cc(CC[C@@H](C)[C@H]2CC[C@H]3[C@@H]4[C@H](OC(C)=O)C[C@@H]5C[C@H](OC(C)=O)CC[C@]5(C)[C@H]4CC[C@]23C)nc2ccc(OC)cc12
selectivity ratio: 3.2
--
smilesStructure: C=C[C@H]1CN2CC[C@H]1C[C@H]2[C@H](O)c1cc(CC[C@@H](C)[C@H]2CC[C@H]3[C@@H]4[C@H](OC(C)=O)C[C@@H]5C[C@H](OC(C)=O)CC[C@]5(C)[C@H]4CC[C@]23C)nc2ccccc12
selectivity ratio: 4.3
--
smilesStructure: C=C[C@H]1CN2CC[C@H]1C[C@H]2[C@H](O)c1cc(CC[C@@H](C)[C@H]2CC[C@H]3[C@@H]4[C@H](O)C[C@@H]5C[C@H](O)CC[C@]5(C)[C@H]4CC[C@]23C)nc2ccccc12
selectivity ratio: 4.3

What value of measured selectivity ratio is listed for `C=C[C@H]1CN2CC[C@H]1C[C@H]2[C@@H](O)c1cc(CC[C@@H](C)[C@H]2CC[C@H]3[C@@H]4[C@H](OC(C)=O)C[C@@H]5C[C@H](OC(C)=O)CC[C@]5(C)[C@H]4CC[C@]23C)nc2ccc(OC)cc12` ? 7.1

What measured selectivity ratio goes with `C=C[C@H]1CN2CC[C@H]1C[C@H]2[C@@H](O)c1cc(CC[C@@H](C)[C@H]2CC[C@H]3[C@@H]4CC[C@@H]5C[C@H](OC(C)=O)CC[C@]5(C)[C@H]4CC[C@]23C)nc2ccc(OC)cc12` ? 2.6

I have this compound here, `C=C[C@H]1CN2CC[C@H]1C[C@H]2[C@@H](O)c1cc(CC[C@@H](C)[C@H]2CC[C@H]3[C@@H]4CC[C@@H]5C[C@H](O)CC[C@]5(C)[C@H]4CC[C@]23C)nc2ccc(OC)cc12` , and I need its recorded selectivity ratio. 3.3

---

- assayInfo: Selectivity index, ratio of IC50 for human WI38 cells to IC50 for Leishmania mexicana mexicana MHOM/BZ/84/BEL46 promastigotes
- Assay type: toxicity, cell-based, WI-38
- measurementParameters: read-out: Ratio IC50
Known selectivity ratio of a selection of compounds

smilesStructure: C=C[C@H]1CN2CC[C@H]1C[C@H]2[C@H](O)c1cc(CC[C@@H](C)[C@H]2CC[C@H]3[C@@H]4CC[C@@H]5C[C@H](O)CC[C@]5(C)[C@H]4CC[C@]23C)nc2ccccc12
selectivity ratio: 0.72
--
smilesStructure: C=C[C@H]1CN2CC[C@H]1C[C@H]2[C@H](O)c1cc(CC[C@@H](C)[C@H]2CC[C@H]3[C@@H]4[C@H](OC(C)=O)C[C@@H]5C[C@H](OC(C)=O)CC[C@]5(C)[C@H]4CC[C@]23C)nc2ccccc12
selectivity ratio: 0.45
--
smilesStructure: C=C[C@H]1CN2CC[C@H]1C[C@H]2[C@H](O)c1cc(CC[C@@H](C)[C@H]2CC[C@H]3[C@@H]4[C@H](OC(C)=O)C[C@@H]5C[C@H](OC(C)=O)CC[C@]5(C)[C@H]4CC[C@]23C)nc2ccc(OC)cc12
selectivity ratio: 1.1
--
smilesStructure: C=C[C@H]1CN2CC[C@H]1C[C@H]2[C@H](O)c1cc(CC[C@@H](C)[C@H]2CC[C@H]3[C@@H]4CC[C@@H]5C[C@H](OC(C)=O)CC[C@]5(C)[C@H]4CC[C@]23C)nc2ccc(OC)cc12
selectivity ratio: 1.2
--
smilesStructure: C=C[C@H]1CN2CC[C@H]1C[C@H]2[C@H](O)c1cc(CC[C@@H](C)[C@H]2CC[C@H]3[C@@H]4[C@H](O)C[C@@H]5C[C@H](O)CC[C@]5(C)[C@H]4CC[C@]23C)nc2ccc(OC)cc12
selectivity ratio: 0.98

State the recorded selectivity ratio for this entry: `C=C[C@H]1CN2CC[C@H]1C[C@H]2[C@@H](O)c1cc(CC[C@@H](C)[C@H]2CC[C@H]3[C@@H]4CC[C@@H]5C[C@H](O)CC[C@]5(C)[C@H]4CC[C@]23C)nc2ccc(OC)cc12` 0.64

# lookup: selectivity ratio of `C=C[C@H]1CN2CC[C@H]1C[C@H]2[C@@H](O)c1cc(CC[C@@H](C)[C@H]2CC[C@H]3[C@@H]4CC[C@@H]5C[C@H](O)CC[C@]5(C)[C@H]4CC[C@]23C)nc2ccccc12` 0.97

What selectivity ratio value was documented for this compound, `C=C[C@H]1CN2CC[C@H]1C[C@H]2[C@H](O)c1cc(CC[C@@H](C)[C@H]2CC[C@H]3[C@@H]4CC[C@@H]5C[C@H](OC(C)=O)CC[C@]5(C)[C@H]4CC[C@]23C)nc2ccccc12` ? 0.46

State the recorded selectivity ratio for this entry: `C=C[C@H]1CN2CC[C@H]1C[C@H]2[C@H](O)c1ccnc2ccccc12` 0.96

---

- assayInfo: Selectivity index, ratio of IC50 for human WI38 cells to IC50 for erythrocytic stage of chloroquine-sensitive Plasmodium falciparum 3D7
- Assay type: toxicity, cell-based, WI-38
- measurementParameters: read-out: Ratio IC50
measurementName: selectivity ratio

Study these solved cases before continuing.
smilesStructure: C=C[C@H]1CN2CC[C@H]1C[C@H]2[C@@H](O)c1cc(CC[C@@H](C)[C@H]2CC[C@H]3[C@@H]4[C@H](OC(C)=O)C[C@@H]5C[C@H](OC(C)=O)CC[C@]5(C)[C@H]4CC[C@]23C)nc2ccccc12
measurementName: selectivity ratio
val: 10.2

smilesStructure: C=C[C@H]1CN2CC[C@H]1C[C@H]2[C@@H](O)c1cc(CC[C@@H](C)[C@H]2CC[C@H]3[C@@H]4[C@H](O)C[C@@H]5C[C@H](O)CC[C@]5(C)[C@H]4CC[C@]23C)nc2ccc(OC)cc12
measurementName: selectivity ratio
val: 14

smilesStructure: C=C[C@H]1CN2CC[C@H]1C[C@@H]2[C@@H](O)c1ccnc2ccccc12
measurementName: selectivity ratio
val: > 222

smilesStructure: C=C[C@H]1CN2CC[C@H]1C[C@H]2[C@H](O)c1cc(CC[C@@H](C)[C@H]2CC[C@H]3[C@@H]4CC[C@@H]5C[C@H](OC(C)=O)CC[C@]5(C)[C@H]4CC[C@]23C)nc2ccccc12
measurementName: selectivity ratio
val: 4.6

smilesStructure: C=C[C@H]1CN2CC[C@H]1C[C@H]2[C@H](O)c1ccnc2ccc(OC)cc12
measurementName: selectivity ratio
val: 32

smilesStructure: C=C[C@H]1CN2CC[C@H]1C[C@H]2[C@H](O)c1cc(CC[C@@H](C)[C@H]2CC[C@H]3[C@@H]4CC[C@@H]5C[C@H](OC(C)=O)CC[C@]5(C)[C@H]4CC[C@]23C)nc2ccc(OC)cc12
measurementName: selectivity ratio
val: 2.7

Please give the measured selectivity ratio for this compound: `C=C[C@H]1CN2CC[C@H]1C[C@H]2[C@@H](O)c1cc(CC[C@@H](C)[C@H]2CC[C@H]3[C@@H]4CC[C@@H]5C[C@H](OC(C)=O)CC[C@]5(C)[C@H]4CC[C@]23C)nc2ccccc12` 3.1

Name the reported selectivity ratio value associated with the compound `C=C[C@H]1CN2CC[C@H]1C[C@H]2[C@H](O)c1ccnc2ccccc12` > 71

---

- assayInfo: Selectivity index, ratio of IC50 for human WI38 cells to IC50 for erythrocytic stage of chloroquine-sensitive Plasmodium falciparum 3D7
- Type: toxicity, cell-based, WI-38
- measurementParameters: read-out: Ratio IC50
Class true (1): selectivity ratio at least 8. Class false (0): selectivity ratio below 8.

Would you please look over these solved cases?
smilesStructure: C=C[C@H]1CN2CC[C@H]1C[C@H]2[C@H](O)c1cc(CC[C@@H](C)[C@H]2CC[C@H]3[C@@H]4[C@H](OC(C)=O)C[C@@H]5C[C@H](OC(C)=O)CC[C@]5(C)[C@H]4CC[C@]23C)nc2ccc(OC)cc12
classAssignment: false (0)
--
smilesStructure: C=C[C@H]1CN2CC[C@H]1C[C@H]2[C@@H](O)c1cc(CC[C@@H](C)[C@H]2CC[C@H]3[C@@H]4CC[C@@H]5C[C@H](O)CC[C@]5(C)[C@H]4CC[C@]23C)nc2ccc(OC)cc12
classAssignment: false (0)
--
smilesStructure: C=C[C@H]1CN2CC[C@H]1C[C@H]2[C@@H](O)c1cc(CC[C@@H](C)[C@H]2CC[C@H]3[C@@H]4CC[C@@H]5C[C@H](OC(C)=O)CC[C@]5(C)[C@H]4CC[C@]23C)nc2ccc(OC)cc12
classAssignment: true (1)
--
smilesStructure: C=C[C@H]1CN2CC[C@H]1C[C@H]2[C@@H](O)c1cc(CC[C@@H](C)[C@H]2CC[C@H]3[C@@H]4[C@H](O)C[C@@H]5C[C@H](O)CC[C@]5(C)[C@H]4CC[C@]23C)nc2ccccc12
classAssignment: true (1)
--
smilesStructure: C=C[C@H]1CN2CC[C@H]1C[C@@H]2[C@@H](O)c1ccnc2ccc(OC)cc12
classAssignment: true (1)

Hi team, for `C=C[C@H]1CN2CC[C@H]1C[C@H]2[C@@H](O)c1cc(CC[C@@H](C)[C@H]2CC[C@H]3[C@@H]4CC[C@@H]5C[C@H](O)CC[C@]5(C)[C@H]4CC[C@]23C)nc2ccccc12` , is the recorded selectivity ratio at or above 8? false (0)

For this compound, is measured selectivity ratio 8 or higher? `C=C[C@H]1CN2CC[C@H]1C[C@H]2[C@H](O)c1cc(CC[C@@H](C)[C@H]2CC[C@H]3[C@@H]4CC[C@@H]5C[C@H](O)CC[C@]5(C)[C@H]4CC[C@]23C)nc2ccccc12` true (1)

Does the reported selectivity ratio for `C=C[C@H]1CN2CC[C@H]1C[C@H]2[C@H](O)c1cc(CC[C@@H](C)[C@H]2CC[C@H]3[C@@H]4[C@H](OC(C)=O)C[C@@H]5C[C@H](OC(C)=O)CC[C@]5(C)[C@H]4CC[C@]23C)nc2ccccc12` fall at or above the 8 mark? true (1)

selectivity ratio >= 8 for `C=C[C@H]1CN2CC[C@H]1C[C@H]2[C@H](O)c1cc(CC[C@@H](C)[C@H]2CC[C@H]3[C@@H]4[C@H](O)C[C@@H]5C[C@H](O)CC[C@]5(C)[C@H]4CC[C@]23C)nc2ccccc12` ? false (0)

Item `C=C[C@H]1CN2CC[C@H]1C[C@H]2[C@H](O)c1cc(CC[C@@H](C)[C@H]2CC[C@H]3[C@@H]4[C@H](O)C[C@@H]5C[C@H](O)CC[C@]5(C)[C@H]4CC[C@]23C)nc2ccc(OC)cc12` with selectivity ratio of 8 or above? true (1)
